TEST PROTOCOL: Dissolution, USP dissolution apparatus 2, 900 mL 0.0033 N hydrochloric acid, 0 rpm, 37° C.
Format: physicochemical
MEASUREMENT PARAMETERS: pH modulating agent: Bicarb + acid; 15 min (Table 33)
Where a name gives a salt, the structure may show the parent alone.
// reported % drug dissolved in 900 mL 0.0033 N HCl at 0 rpm for each item listed
Express your answer in %, writing the number without its unit.

CN(C)C(=O)C(CCN1CCC(O)(c2ccc(Cl)cc2)CC1)(c1ccccc1)c1ccccc1 [Loperamide hydrochloride]    87

Look up % drug dissolved in 900 mL 0.0033 N HCl at 0 rpm: O=C1Nc2ccc(Cl)cc2C(c2ccccc2Cl)=NC1O (stereo not shown) 95

Look up % drug dissolved in 900 mL 0.0033 N HCl at 0 rpm: `Cc1nnc2n1-c1ccc(Cl)cc1C(c1ccccc1)=NC2` 45

Look up % drug dissolved in 900 mL 0.0033 N HCl at 0 rpm: CCN(CC)CCNC(=O)c1cc(Cl)c(N)cc1OC [Metoclopramide hydrochloride] 86

* * *

TEST PROTOCOL: Dissolution, USP dissolution apparatus 2, 900 mL 0.0033 N hydrochloric acid, 0 rpm, 37° C.
Type: physicochemical
MEASUREMENT PARAMETERS: pH modulating agent: Bicarb + acid; 30 min (Table 33)
Counter-ions that a name gives are not always drawn.
VALUE TYPE: % drug dissolved in 900 mL 0.0033 N HCl at 0 rpm (%)
Express your answer in %, writing the number without its unit.

Consider the reported % drug dissolved in 900 mL 0.0033 N HCl at 0 rpm for these compounds:
CCN(CC)CCNC(=O)c1cc(Cl)c(N)cc1OC [Metoclopramide hydrochloride]    91
Cc1nnc2n1-c1ccc(Cl)cc1C(c1ccccc1)=NC2 [Alprazolam]    63
CN(C)C(=O)C(CCN1CCC(O)(c2ccc(Cl)cc2)CC1)(c1ccccc1)c1ccccc1 [Loperamide hydrochloride]    95

Now examine the next entry.
Look up % drug dissolved in 900 mL 0.0033 N HCl at 0 rpm: O=C1Nc2ccc(Cl)cc2C(c2ccccc2Cl)=NC1O (stereo not shown) [Lorazepam] 99

* * *

TEST PROTOCOL: Dissolution, USP dissolution apparatus 2, 900 mL 0.0033 N hydrochloric acid, 0 rpm, 37° C.
Format: physicochemical
MEASUREMENT PARAMETERS: pH modulating agent: Bicarb + acid; 300 sec (Table 33)
Structures can show the parent of a compound that is named as a salt.
VALUE TYPE: % drug dissolved in 900 mL 0.0033 N HCl at 0 rpm (%)
Express your answer in %, writing the number without its unit.

Consider the reported % drug dissolved in 900 mL 0.0033 N HCl at 0 rpm for these compounds:
Cc1nnc2n1-c1ccc(Cl)cc1C(c1ccccc1)=NC2    20
CCN(CC)CCNC(=O)c1cc(Cl)c(N)cc1OC [Metoclopramide hydrochloride]    69
CN(C)C(=O)C(CCN1CCC(O)(c2ccc(Cl)cc2)CC1)(c1ccccc1)c1ccccc1 [Loperamide hydrochloride]    72

Now examine the next entry.
Look up % drug dissolved in 900 mL 0.0033 N HCl at 0 rpm: O=C1Nc2ccc(Cl)cc2C(c2ccccc2Cl)=NC1O (stereo not shown) 85

* * *

TEST PROTOCOL: Dissolution, USP dissolution apparatus 2, 900 mL 0.0033 N hydrochloric acid, 0 rpm, 37° C.
Type: physicochemical
MEASUREMENT PARAMETERS: basic and amphoteric drugs in formulations according to the invention (Table 32); 300 sec; 0 rpm
Procedure: Testing was conducted in a dissolution medium containing 900 mL 0.0033 N hydrochloric acid (HCl) at 37° C. which discriminates better between fast dissolving formulations than more acidic dissolution media where the effect of high acid concentration tends to mask formulation effects on dissolution. […] Unless otherwise stated, drug concentrations were measured using a Varian Cary 50 UV-Vis Spectrophotometer set at an appropriate wavelength using flow through cells for automatic continuous sampling. […]
Structures can show the parent of a compound that is named as a salt.
VALUE TYPE: % dissolved in 900 mL 0.0033 N HCl (%)
Express your answer in %, writing the number without its unit.

Consider the reported % dissolved in 900 mL 0.0033 N HCl for these compounds:
O=C1Nc2ccc(Cl)cc2C(c2ccccc2Cl)=NC1O (stereo not drawn)    85
Cc1nccn1CC1CCc2c(c3ccccc3n2C)C1=O (stereo not drawn) [Ondansetron hydrochloride]    65
CN(C)CCc1c[nH]c2ccc(C[C@H]3COC(=O)N3)cc12    77
Cc1ccc(-c2nc3ccc(C)cn3c2CC(=O)N(C)C)cc1 [Zolpidem tartrate]    91
Cc1nnc2n1-c1ccc(Cl)cc1C(c1ccccc1)=NC2    20
CN(C)C(=O)C(CCN1CCC(O)(c2ccc(Cl)cc2)CC1)(c1ccccc1)c1ccccc1 [Loperamide hydrochloride]    72
COc1cccc(C2(O)CCCCC2CN(C)C)c1 (stereo not drawn) [Tramadol hydrochloride]    95
CCN(CC)CCNC(=O)c1cc(Cl)c(N)cc1OC [Metoclopramide hydrochloride]    69

Now examine the next entry.
Look up % dissolved in 900 mL 0.0033 N HCl: CN1CCC[C@@H]1Cc1c[nH]c2ccc(CCS(=O)(=O)c3ccccc3)cc12 [Eletriptan hydrochloride, Eletriptan hydrobromide] 95
